Please respond with reported selectivity ratio for every item in the list.
experiment: Selectivity index, ratio of CC50 for cytotoxicity against human HeLa CCL2 cells to EC50 for antiviral activity against CHIKV 122508 infected in human HeLa CCL2 cells; assay type: toxicity, cell-based; details: read-out: Ratio CC50/EC50
One number for each entry.

Take a look at these entries with their results.
>  <mol.smiles>
C=C1CC[C@H]2C(C)(C)CCC[C@]2(C)[C@H]1C/C=C1/C(=O)NC(=O)c2ccccc21

>  <observed.result>
15

$$$$
>  <mol.smiles>
C=C1CC[C@H]2C(C)(C)CCC[C@]2(C)[C@H]1C/C=C1\C(=O)Nc2ccc(F)cc21

>  <observed.result>
2.4

$$$$
>  <mol.smiles>
C=C1CC[C@H]2C(C)(C)CCC[C@]2(C)[C@H]1C/C=C1/C(=O)Nc2ccc(C)cc21

>  <observed.result>
758

$$$$

From here, focus on the item given below.
# return recorded selectivity ratio for entry C=C1CC[C@@H]2[C@](C)(CO)[C@H](O)CC[C@@]2(C)[C@@H]1C/C=C1/C(=O)Nc2ccccc21 14

###

For each entry below, report its selectivity ratio value.
assay: Selectivity index, ratio of CC50 for cytotoxicity against human HeLa CCL2 cells to EC50 for antiviral activity against CHIKV 122508 infected in human HeLa CCL2 cells; format: toxicity, cell-based; conditions: read-out: Ratio CC50/EC50
Answers are plain numbers.

Would you please look over these solved cases?
>  <mol.smiles>
C=C1CC[C@H]2C(C)(C)CCC[C@]2(C)[C@H]1C/C=C1\C(=O)Nc2cc(C(F)(F)F)ccc21

>  <selectivity ratio>
17

$$$$
>  <mol.smiles>
C=C1CC[C@H]2C(C)(C)CCC[C@]2(C)[C@H]1C/C=C1/C(=O)Nc2ccccc21

>  <selectivity ratio>
15

$$$$
>  <mol.smiles>
C=C1[C@H](O)C[C@H]2C(C)(C)CCC[C@]2(C)[C@H]1C/C=C1\C(=O)Nc2c(Cl)cccc21

>  <selectivity ratio>
6700

$$$$

Quick batch: selectivity ratio for everything below.
1. C=C1CC[C@H]2C(C)(C)CCC[C@]2(C)[C@H]1C/C=C1/C(=O)Nc2c(OC)cccc21
2. C=C1CC[C@H]2C(C)(C)CCC[C@]2(C)[C@H]1C/C=C1/C(=O)Nc2ccc(F)cc21
3. C=C1CC[C@H]2C(C)(C)CCC[C@]2(C)[C@H]1C/C=C1\C(=O)Nc2cccc(C)c21

1. 602
2. 94
3. 69

Hello, I would appreciate it if you could give selectivity ratio for each entry below.
1. C=C1[C@H](O)C[C@H]2C(C)(C)CCC[C@]2(C)[C@H]1C/C=C1\C(=O)Nc2ccccc21
2. C=C1CC[C@H]2C(C)(C)CCC[C@]2(C)[C@H]1C/C=C1\C(=O)Nc2cc(F)ccc21
3. CC1=CC[C@H]2C(C)(C)CCC[C@]2(C)[C@H]1C/C=C1/C(=O)Nc2c(Cl)cccc21
4. C=C1CC[C@H]2C(C)(C)CCC[C@]2(C)[C@H]1C/C=C1\C(=O)Nc2ncccc21
5. C=C1CC[C@H]2C(C)(C)CCC[C@]2(C)[C@H]1C/C=C1/C(=O)Nc2cc(C)ccc21

1. 14
2. 67
3. 1.5
4. 870
5. 12700

###

assay: Selectivity index, ratio of CC50 for cytotoxicity against human HeLa CCL2 cells to EC50 for antiviral activity against CHIKV 122508 infected in human HeLa CCL2 cells; format: toxicity, cell-based; settings: read-out: Ratio CC50/EC50
readout.type: selectivity ratio
Answers are plain numbers.

# example entries with known answers
>  <mol.smiles>
C=C1CC[C@H]2C(C)(C)CCC[C@]2(C)[C@H]1C/C=C1/C(=O)Nc2c(F)cccc21

>  <selectivity ratio>
4070

$$$$
>  <mol.smiles>
C=C1CC[C@H]2C(C)(C)CCC[C@]2(C)[C@H]1C/C=C1\C(=O)Nc2c(Cl)cccc21

>  <selectivity ratio>
5.7

$$$$
>  <mol.smiles>
C=C1CC[C@H]2C(C)(C)CCC[C@]2(C)[C@H]1C/C=C1\C(=O)Nc2ccc(C)cc21

>  <selectivity ratio>
461

$$$$
>  <mol.smiles>
C=C1CC[C@H]2C(C)(C)CCC[C@]2(C)[C@H]1C/C=C1\C(=O)Nc2cccc(Cl)c21

>  <selectivity ratio>
6.8

$$$$
>  <mol.smiles>
C=C1CC[C@H]2C(C)(C)CCC[C@]2(C)[C@H]1C/C=C1\C(=O)Nc2cc(Br)ccc21

>  <selectivity ratio>
2.6

$$$$
>  <mol.smiles>
CC1=CC[C@H]2C(C)(C)CCC[C@]2(C)[C@H]1C/C=C1/C(=O)Nc2ccccc21

>  <selectivity ratio>
5.8

$$$$
>  <mol.smiles>
CC1=CC[C@H]2C(C)(C)CCC[C@]2(C)[C@H]1C/C=C1\C(=O)Nc2ccccc21

>  <selectivity ratio>
3

$$$$
>  <mol.smiles>
C=C1CC[C@H]2C(C)(C)CCC[C@]2(C)[C@H]1C/C=C1/C(=O)Nc2ccc(Br)cc21

>  <selectivity ratio>
10

$$$$
>  <mol.smiles>
C=C1CC[C@H]2C(C)(C)CCC[C@]2(C)[C@H]1C/C=C1\C(=O)Nc2ccc(Cl)cc21

>  <selectivity ratio>
4.5

$$$$
>  <mol.smiles>
C=C1CC[C@H]2C(C)(C)CCC[C@]2(C)[C@H]1C/C=C1\C(=O)Nc2c(F)cccc21

>  <selectivity ratio>
336

$$$$

Provide each entry's selectivity ratio from the list below.
1. C=C1CC[C@H]2C(C)(C)CCC[C@]2(C)[C@H]1C/C=C1\C(=O)Nc2cc(C)ccc21
2. C=C1CC[C@H]2C(C)(C)CCC[C@]2(C)[C@H]1C/C=C1\C(=O)Nc2c(OC)cccc21

[3.2, 780]
